- Test system: HCT-116 colon
- ASSAY: NCI-60 one-dose screen, 48 h (100 = growth as untreated, 0 = no growth, -100 = all killed)
- ASSAY CONDITIONS: 10 µM unless noted
The panel holds about 83,000 compounds, 20% with a hit somewhere; the sample as a whole holds those more often. The source made the active and inactive calls. How the source made its calls: active means growth percent below 10; inactive means the rest.
READOUT LABEL: growth

COMPOUND | growth
CCN1CCN(CC(=O)Nc2nc3ccc(NCc4ccc(Br)cc4)cc3s2)CC1 | 17.8% (inactive)
NC(=O)OCCn1cc(-c2nc(-c3c[nH]c4ncccc34)cs2)c2ccccc21 | 30.8% (inactive)

# input for lookup
q: Which growth is reported for this compound? `CCCCCCCCn1ccc2cc(NC(=O)Cn3cc(CN4CCC(C)CC4)nn3)ccc21`
a: -18.6% (active)

###

Readings of growth for the listed compounds
- Tested on: SN12C renal
- ASSAY: NCI-60 one-dose screen, 48 h (100 = growth as untreated, 0 = no growth, -100 = all killed)
- ASSAY CONDITIONS: 10 µM unless noted
About 83,000 compounds went through this panel and 20% of them were active in at least one assay; those are over-represented in the sample as a whole. Calls of active or inactive are those of the source. How the source made its calls: active means growth percent below 10; inactive means the rest.

Recorded results for 3 compounds are shown here.
COMPOUND | growth
Cc1ccc(C)n1/C=C/n1c(C)ccc1C | 118% (inactive)
COc1cc2c(/C=C3\C(=O)Nc4ccccc43)c(C(=O)O)[nH]c2cc1C | 99.7% (inactive)
COc1ccc(C2=NN(C(C)=O)C(c3ccc(Oc4ccnc5cc(Cl)ccc45)c(OC)c3)C2)cc1 (centres undefined) | 68.7% (inactive)

# input for lookup
q: Which growth is reported for this compound? `N#Cc1c(Nc2ccc(F)cc2)n[nH]c1-c1cccs1`
a: 89.5% (inactive)

###

- Test system: PC-3 prostate
- ASSAY: NCI-60 one-dose screen, 48 h
- ASSAY CONDITIONS: 10 µM unless noted
Compounds without any hit were thinned out: in the full panel of roughly 83,000, 20% have a hit. Active and inactive are the calls of the source. The calls were made as follows: active = growth percent below 10; inactive = the rest.
Outcome (select one): active, inactive

Would you please look over these solved cases?
COMPOUND | CATEGORY LABEL
Cc1c2cnccc2c(C)c2c1c1cc(C3OCCCO3)ccc1n2C | active
C=C1C(=O)O[C@H]2[C@H]1CC/C(CNC(=O)c1cc3ccccc3[nH]1)=C\CC[C@@]1(C)O[C@@H]21 | active
CC(C)(C)c1cc(C=Nc2cccc(C(F)(F)F)c2)c(O)c(C(C)(C)C)c1 | inactive

q: # outcome recorded in this test, key = `N#CCC1=NC(c2cccs2)=Nc2ccccc2S1`
a: inactive

q: # outcome recorded in this test, key = `NC(=O)OCCn1cc(-c2nc(-c3c[nH]c4ncccc34)cs2)c2ccccc21`
a: inactive

q: # outcome recorded in this test, key = `CNCc1cccc2c1OCCOCCN(C)C(=O)CN(C)S(=O)(=O)c1ccc(cc1)-c1cnc(N)c(n1)C(=O)N2`
a: inactive

q: # outcome recorded in this test, key = `CNC(=O)c1c(NC(=O)c2ccc(C(C)(C)C)cc2)sc2c(CN(C)C)c(O)ccc12`
a: active

###

- System: SF-268 CNS
- ASSAY: NCI-60 one-dose screen, 48 h (100 = growth as untreated, 0 = no growth, -100 = all killed)
- ASSAY CONDITIONS: 10 µM unless noted
- Procedure: Cells are grown in 96 well plates and exposed to the test compound for 48 hours. Compounds are tested at a single concentration, which is 10^-5 M for most compounds. The reported endpoint is percent growth (GI% or GIPRCNT), where numbers from 0 - 100% represent growth inhibition, and numbers from -100% - 0 represent cell death. For example, a value of 40 represents 60% growth inhibition. A value of 0 means no net growth occurred over the course of the experiment. […]
The panel holds about 83,000 compounds, 20% with a hit somewhere; the sample as a whole holds those more often.
Readings of growth for the listed compounds
Quick note: give the figure in %, leave out the unit.

q: Please provide the recorded growth for `N#C/C(=C\c1ccc(Br)cc1)c1cc2ccccc2[nH]1` , tested on SF-268 CNS.
a: 102

q: Please provide the recorded growth for CCN(CC)CCCC(C)Nc1ccc2cc(OC)ccc2n1 (centres undefined) , tested on SF-268 CNS.
a: 91.2

q: Please provide the recorded growth for `COc1ccc2c(c1)c(-c1ccc(-c3cn(C)c4ccc(OC)cc34)[nH]1)cn2C` , tested on SF-268 CNS.
a: 9.71

q: Please provide the recorded growth for `COc1cccc2c(N=NC(=O)c3ccc(S(N)(=O)=O)cc3)c(O)[nH]c12` , tested on SF-268 CNS.
a: 106

###

- System: NCI-H522 lung
- ASSAY: NCI-60 one-dose screen, 48 h
- ASSAY CONDITIONS: 10 µM unless noted
The panel holds about 83,000 compounds, 20% with a hit somewhere; the sample as a whole holds those more often. The source made the active and inactive calls. How the source made its calls: active means growth percent below 10; inactive means the rest.
Outcome (select one): active, inactive

Would you please look over these solved cases?
COMPOUND | TEST SYSTEM | CATEGORY LABEL
COC(=O)/C=C1/SC(=Nc2cccc(Cl)c2)N(CCc2c[nH]c3ccc(O)cc23)C1=O | NCI-H522 lung | inactive
CCN(CC)c1ccc(N2C(=O)/C(=C/c3cccs3)SC2=S)cc1 | NCI-H522 lung | inactive
CCOC(=O)C1=C(C)N=C2SC=C(c3ccccc3)N2[C@H]1c1cn[nH]c1-c1ccc(Cl)cc1 | NCI-H522 lung | active
Nc1c(C(=O)Nc2ccccn2)sc2nc3c(cc12)C(O)CCC3 (centres undefined) | NCI-H522 lung | inactive
CCC/C(=N\NC(N)=O)C(OC)OC | NCI-H522 lung | inactive
O=C(NCc1ccc2c(c1)OCO2)NCC1CCCC(CNC(=O)NCc2ccc3c(c2)OCO3)C1 (centres undefined) | NCI-H522 lung | inactive

q: # outcome recorded in this test, key = `CCn1cc(C2=C(c3cn(C)c4ncccc34)C(=O)NC2=O)c2cccnc21`
a: inactive

q: # outcome recorded in this test, key = O=C(/C=C/C12c3ccccc3C(c3ccccc31)C1C(=O)NC(=O)C12)c1ccccn1 (centres undefined)
a: active

q: # outcome recorded in this test, key = `N=c1c2c(=N)n3c(nc2nc2n1-c1ccccc1Sc1ccccc1-2)sc1cc(Cl)ccc13`
a: active

q: # outcome recorded in this test, key = `Clc1ccc(-c2nc(-c3c[nH]c4ncccc34)cs2)cc1`
a: inactive

q: # outcome recorded in this test, key = `N=C(N)SCc1cccc2c(CSC(=N)N)cccc12`
a: inactive

q: # outcome recorded in this test, key = `CCOC(=O)c1cn2ncnc(Oc3ccc(NC(=O)NC4CC4)c(F)c3)c2c1C`
a: inactive

q: # outcome recorded in this test, key = `C#CCn1cnc2c(Nc3cccc(NC(=O)CCl)c3)ncnc21`
a: active

q: # outcome recorded in this test, key = `Cc1ccccc1OCC(O)COc1ccccc1C`
a: inactive

q: # outcome recorded in this test, key = `CCCCCCNc1nc(NCCCCCC)c2[nH]c(NCCCCCC)nc2n1`
a: active

q: # outcome recorded in this test, key = `CS(=O)(=O)Nc1cncc(-c2ccc3ncnc(Nc4ccc(F)c(Cl)c4)c3c2)c1`
a: active

q: # outcome recorded in this test, key = `O=C(Nc1ccccc1O)c1ccccc1Nc1ccnc(C(F)(F)F)c1`
a: inactive

q: # outcome recorded in this test, key = `CC1(C)OC(=O)C(=Cc2cccc(Br)c2)C(=O)O1`
a: inactive

q: # outcome recorded in this test, key = COc1ccc(C2C3=C(COC3=O)N(CCO)c3cc4c(cc32)OCCO4)cc1OC (centres undefined)
a: active

###

- System: SK-MEL-5 melanoma
- ASSAY: NCI-60 one-dose screen, 48 h (100 = growth as untreated, 0 = no growth, -100 = all killed)
- ASSAY CONDITIONS: 10 µM unless noted
This is part of a sample that, as a whole, favours compounds with a hit. Of some 83,000 tested, about 20% had one in any assay. The source made the active and inactive calls. The calls were made as follows: active = growth percent below 10; inactive = the rest.
READOUT LABEL: growth

COMPOUND | TEST SYSTEM | growth
CCCCn1sc(=O)n(Cc2ccc(CNC(=O)OCc3ccc4c(Br)cc(Br)c(O)c4n3)cc2)c1=O | SK-MEL-5 melanoma | -35.2% (active)

q: Which growth is reported for this compound? `Cc1ncc(C(=O)Nc2ccc(CN3CCN(C)CC3)c(C(F)(F)F)c2)cc1C#Cc1cnc(N)c2ccncc12`
a: -90.8% (active)

q: Which growth is reported for this compound? CC1=CCC[C@@H]2C1(C)CC[C@H](C)[C@@]2(C)CC1=CC(=O)C(SC(C)(C)C)=CC1=O (some centres undefined)
a: 78.4% (inactive)

q: Which growth is reported for this compound? `CCCNc1nc2ccccc2c2c(=O)c3cccc(Cl)c3sc12`
a: 97.6% (inactive)
